testTarget: CCR8 (Homo sapiens)
Sequence (P51685 whole entry, the tested form may be a part): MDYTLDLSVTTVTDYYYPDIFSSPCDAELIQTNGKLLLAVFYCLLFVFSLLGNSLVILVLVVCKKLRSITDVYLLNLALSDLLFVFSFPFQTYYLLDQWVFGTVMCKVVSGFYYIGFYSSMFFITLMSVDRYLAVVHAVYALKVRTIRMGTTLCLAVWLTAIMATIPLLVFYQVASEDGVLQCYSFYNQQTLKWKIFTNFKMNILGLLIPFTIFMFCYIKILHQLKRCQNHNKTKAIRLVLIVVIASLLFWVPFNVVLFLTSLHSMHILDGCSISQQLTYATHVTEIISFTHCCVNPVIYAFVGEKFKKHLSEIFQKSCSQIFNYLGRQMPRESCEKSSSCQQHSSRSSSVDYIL
testMethodNotes: Tango assay (Tango-CCR8-Gal4-CHO-K1 cells, CCL1-stimulated, ONE-Glo luminescence)
conditionDescription: Tango Assay IC50, Inhibition of CCR8 Tango cell in vitro
pIC50: −log10 of the molar value. Counter-ions that a name gives are not always drawn.
measuredMetric: pIC50

molecule=Cc1ccccc1NC(=O)c1ccc(S(=O)(=O)N[C@H](C)C2CCN(C(=O)OC(C)(C)C)CC2)cc1C testtarget="CCR8 (Homo sapiens)" qualifiersymbol=< endpointvalue=5.00
molecule="Cc1ccccc1C(=O)Nc1cc(C)c(S(=O)(=O)N[C@H](C)C2CCN(C)CC2)cc1F [Compound 303, hydrochloride]" testtarget="CCR8 (Homo sapiens)" qualifiersymbol== endpointvalue=8.05
molecule="Cc1ccccc1C(=O)Nc1ccc(S(=O)(=O)NC(C)C2CC3CCC2CC3)c(C)c1 (stereo not shown)" testtarget="CCR8 (Homo sapiens)" qualifiersymbol== endpointvalue=7.07
molecule="Cc1ccccc1C(=O)Nc1ccc(S(=O)(=O)NC(C)C2CCCN(C(=O)[C@H](C)N)C2)c2ccccc12 (single isomer, unassigned) [Compound 158B]" testtarget="CCR8 (Homo sapiens)" qualifiersymbol== endpointvalue=6.16
molecule="COc1cc(S(=O)(=O)NC(C)C2CC3CCC2CC3)c(C)cc1NC(=O)c1ccccc1C (stereo not shown)" testtarget="CCR8 (Homo sapiens)" qualifiersymbol== endpointvalue=7.66
molecule="Cc1cc(S(=O)(=O)NC(C)C2CCOCC2)ccc1NC(=O)c1ccccc1C (stereo not shown)" testtarget="CCR8 (Homo sapiens)" qualifiersymbol== endpointvalue=6.07
molecule="Cc1cc(S(=O)(=O)N[C@H](C)C2CCNCC2)ccc1NC(=O)c1ccccc1C(F)(F)F [Compound 249A, hydrochloride]" testtarget="CCR8 (Homo sapiens)" qualifiersymbol== endpointvalue=7.92
